Test system: Mus musculus
Experiment: Effect on 8-OH-DPAT-induced hypothermia in Swiss albino mouse assessed as change in rectal body temperature at 10 mg/kg, ip pretreated with compound for 45 mins followed by 8-OH-DPAT challenge and measured after 30 min by thermometer (reference value: -1.36 to -1.12 degreeC)
Format: functional, organism-based
Settings: time 75.0 min
EXPERIMENTAL_ENDPOINT: deltaT (°C)
Give just the numeric value; °C need not be written.

# MOLECULE, deltaT [°C]
records = [
    ("O=C(NC1CC2CCC(C1)N2Cc1ccc(F)cc1)c1ccc2ccccc2c1 (stereo not drawn)", -1.32),
]

IN: Fill in deltaT for record O=C(NC1CC2CCC(C1)N2Cc1cccc(Br)c1)c1ccc2ccccc2c1 (stereo not drawn)
OUT: -1.62

IN: Fill in deltaT for record O=C(NC1CC2CCC(C1)N2Cc1ccccc1Cl)c1ccc2ccccc2c1 (stereo not drawn)
OUT: -1.17

###

Target: Dopamine D2 receptor and Serotonin 2a receptor (D2 and 5HT2a) (Rattus norvegicus) (UniProt P61169+P14842)
Sequence (P14842 whole entry, looked up): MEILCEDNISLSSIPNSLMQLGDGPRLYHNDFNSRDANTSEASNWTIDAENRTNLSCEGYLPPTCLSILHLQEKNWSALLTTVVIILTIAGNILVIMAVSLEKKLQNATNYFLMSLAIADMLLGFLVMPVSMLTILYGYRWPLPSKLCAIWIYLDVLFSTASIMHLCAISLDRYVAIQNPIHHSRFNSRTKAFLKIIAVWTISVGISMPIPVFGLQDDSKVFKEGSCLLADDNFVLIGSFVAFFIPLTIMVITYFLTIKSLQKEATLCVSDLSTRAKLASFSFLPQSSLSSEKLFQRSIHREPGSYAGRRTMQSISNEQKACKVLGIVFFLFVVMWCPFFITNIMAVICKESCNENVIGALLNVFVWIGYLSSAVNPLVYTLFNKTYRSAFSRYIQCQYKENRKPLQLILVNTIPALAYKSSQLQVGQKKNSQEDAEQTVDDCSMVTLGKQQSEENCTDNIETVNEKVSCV
Sequence (P61169 whole entry, looked up): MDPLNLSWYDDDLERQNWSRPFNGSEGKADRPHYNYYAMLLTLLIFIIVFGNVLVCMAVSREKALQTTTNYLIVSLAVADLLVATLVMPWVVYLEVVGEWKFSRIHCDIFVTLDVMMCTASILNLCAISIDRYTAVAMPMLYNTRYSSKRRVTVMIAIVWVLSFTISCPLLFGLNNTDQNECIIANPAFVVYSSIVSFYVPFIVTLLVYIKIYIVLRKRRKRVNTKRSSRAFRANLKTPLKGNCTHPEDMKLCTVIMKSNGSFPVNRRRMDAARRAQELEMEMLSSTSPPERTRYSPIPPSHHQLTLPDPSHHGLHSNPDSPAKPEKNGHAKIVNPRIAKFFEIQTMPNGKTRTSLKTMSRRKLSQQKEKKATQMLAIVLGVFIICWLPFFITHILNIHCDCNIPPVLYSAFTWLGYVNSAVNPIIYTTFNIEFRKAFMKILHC
Assay: Ratio of pKi for displacement of [3H]-ketanserin from rat cerebral cortex 5HT2A receptor measured after 20 mins by liquid scintillation counter method to pKi for displacement of [3H] Spiperone from rat striatum dopamine D2 receptor measured after 30 mins by liquid scintillation counter method
Some compounds, each annotated with its measured Ratio pKi.
Could you respond with only the numeric value?

Check out these entries, answers already filled in.
# COMPOUND, EXPERIMENTAL_ENDPOINT, VAL
records = [
    ("O=C(NC1CC2CCC(C1)N2Cc1ccc(F)cc1)c1ccc2ccccc2c1 (stereo not drawn)", "Ratio pKi", 0.97),
    ("O=C(NC1CC2CCC(C1)N2Cc1ccccc1Cl)c1ccc2ccccc2c1 (stereo not drawn)", "Ratio pKi", 0.86),
    ("O=C(NC1CC2CCC(C1)N2Cc1cccc(Br)c1)c1ccc2ccccc2c1 (stereo not drawn)", "Ratio pKi", 0.88),
]

IN: Fill in Ratio pKi for record COc1cccc(CN2C3CCC2CC(NC(=O)c2ccc4ccccc4c2)C3)c1 (stereo not drawn)
OUT: 0.81

IN: Fill in Ratio pKi for record O=C(NC1CC2CCC(C1)N2Cc1cccc(F)c1)c1ccc2ccccc2c1 (stereo not drawn)
OUT: 1.05

IN: Fill in Ratio pKi for record COc1ccccc1CN1C2CCC1CC(NC(=O)c1ccc3ccccc3c1)C2 (stereo not drawn)
OUT: 0.85

IN: Fill in Ratio pKi for record O=C(NC1CC2CCC(C1)N2Cc1cccc(Cl)c1)c1ccc2ccccc2c1 (stereo not drawn)
OUT: 0.81

IN: Fill in Ratio pKi for record Cc1cccc(CN2C3CCC2CC(NC(=O)c2ccc4ccccc4c2)C3)c1 (stereo not drawn)
OUT: 0.78

###

Assay: Effect on body temperature in Swiss Albino mouse assessed as rectal body temperature at 20 mg/kg, ip measured after 120 mins by thermometer (reference value: 0.15 to 1.11 degreeC)
Format: ADME, organism-based
Settings: in vivo, 2 h
EXPERIMENTAL_ENDPOINT: deltaT (°C)
Give just the numeric value; °C need not be written.

Check out these entries, answers already filled in.
# COMPOUND, deltaT (°C)
rows = [
    ("O=C(NC1CC2CCC(C1)N2Cc1cccc(Br)c1)c1ccc2ccccc2c1 (stereo not given)", 1.23),
    ("COc1ccccc1CN1C2CCC1CC(NC(=O)c1ccc3ccccc3c1)C2 (stereo not given)", -0.26),
]

IN: Fill in deltaT for record O=C(NC1CC2CCC(C1)N2Cc1ccccc1Cl)c1ccc2ccccc2c1 (stereo not given)
OUT: 1.39

IN: Fill in deltaT for record O=C(NC1CC2CCC(C1)N2Cc1ccc(F)cc1)c1ccc2ccccc2c1 (stereo not given)
OUT: 0.54

IN: Fill in deltaT for record O=C(NC1CC2CCC(C1)N2Cc1cccc(F)c1)c1ccc2ccccc2c1 (stereo not given)
OUT: 0.81
